measured-target: Mineralocorticoid receptor (Homo sapiens)
Sequence (P08235 whole entry): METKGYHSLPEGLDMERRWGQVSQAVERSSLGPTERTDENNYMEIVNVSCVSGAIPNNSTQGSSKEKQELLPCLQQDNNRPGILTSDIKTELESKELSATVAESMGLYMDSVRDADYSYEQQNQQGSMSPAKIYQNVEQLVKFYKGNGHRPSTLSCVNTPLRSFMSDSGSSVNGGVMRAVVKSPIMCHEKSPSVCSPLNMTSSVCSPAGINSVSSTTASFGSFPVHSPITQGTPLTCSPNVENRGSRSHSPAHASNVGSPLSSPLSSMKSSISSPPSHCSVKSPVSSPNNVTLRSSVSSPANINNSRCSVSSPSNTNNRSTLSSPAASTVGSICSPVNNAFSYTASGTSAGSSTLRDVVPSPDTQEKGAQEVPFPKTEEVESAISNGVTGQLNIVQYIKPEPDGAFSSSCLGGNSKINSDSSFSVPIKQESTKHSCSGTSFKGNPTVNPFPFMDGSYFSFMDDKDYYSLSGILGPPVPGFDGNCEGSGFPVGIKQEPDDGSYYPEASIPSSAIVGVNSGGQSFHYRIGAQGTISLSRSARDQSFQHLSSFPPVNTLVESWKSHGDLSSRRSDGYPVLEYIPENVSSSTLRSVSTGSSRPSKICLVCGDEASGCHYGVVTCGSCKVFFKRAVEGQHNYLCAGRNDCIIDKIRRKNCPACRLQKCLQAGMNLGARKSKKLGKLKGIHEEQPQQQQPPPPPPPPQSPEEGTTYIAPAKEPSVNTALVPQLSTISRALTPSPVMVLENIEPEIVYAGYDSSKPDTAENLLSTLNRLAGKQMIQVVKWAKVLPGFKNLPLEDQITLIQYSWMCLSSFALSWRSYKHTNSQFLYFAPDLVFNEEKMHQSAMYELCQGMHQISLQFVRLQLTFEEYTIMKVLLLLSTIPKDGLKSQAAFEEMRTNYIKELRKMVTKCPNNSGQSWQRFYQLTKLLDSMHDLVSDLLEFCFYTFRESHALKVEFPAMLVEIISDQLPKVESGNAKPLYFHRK
assay-text: Binding affinity to mineralocorticoid receptor (unknown origin) by fluorescence polarization competitive binding assay
pIC50: −log10 of the molar value.
readout-name: pIC50

Recorded pIC50, per entry:
> print(dat)
                                   compound  observed.value
1  Cc1cc(C)c(S(=O)(=O)NC(Cc2c[nH]c3cc(C)ccc23)C(F)(F)F)c(C)c1 (centres undefined)            6.85
2  Nc1cc(Cl)cc(Cl)c1S(=O)(=O)NC(Cc1c[nH]c2ccccc12)C(F)(F)F (centres undefined)            6.57
3  Cc1cc(C)c(S(=O)(=O)NC(CSc2ccccc2)C(F)(F)F)c(C)c1 (centres undefined)            6.55
4  Cc1cc(C)c(S(=O)(=O)NC(Cc2c[nH]c3cccc(C#N)c23)C(F)(F)F)c(C)c1 (centres undefined)            6.77
5  Cc1cc(C)c(S(=O)(=O)NC(Cc2c[nH]c3c(C#N)cc(C)cc23)C(F)(F)F)c(C)c1 (centres undefined)            6.96
6  Cc1cc(C)c(S(=O)(=O)NC(CNc2ccccc2)C(F)(F)F)c(C)c1 (centres undefined)            6.59
7  Cc1cc(C)c(S(=O)(=O)NC(COc2ccccc2)C(F)(F)F)c(C)c1 (centres undefined)            6.47

A = CC[C@@H](Cn1cc(C#N)c2ccccc21)NS(=O)(=O)c1c(N)cc(Cl)cc1Cl
B = Cc1cc(C)c(S(=O)(=O)NC(Cn2ccc3ccccc32)C(F)(F)F)c(C)c1 (centres undefined)
Exercise: compare A and B ; which one has the greater pIC50? Your answer should be the label attached to the chosen record.
Key: B
(B: 6.92, A: 6.48)
